# target under test: JAK2 (catalytic domain, His-tag) (Homo sapiens, UniProt O60674)
# Construct: All four purified enzymes contain only the catalytic domain; His (N); purchased Carna Biosciences, Inc; host or cells: baculovirus expression system
# Sequence (O60674 849-1124 limits assumed): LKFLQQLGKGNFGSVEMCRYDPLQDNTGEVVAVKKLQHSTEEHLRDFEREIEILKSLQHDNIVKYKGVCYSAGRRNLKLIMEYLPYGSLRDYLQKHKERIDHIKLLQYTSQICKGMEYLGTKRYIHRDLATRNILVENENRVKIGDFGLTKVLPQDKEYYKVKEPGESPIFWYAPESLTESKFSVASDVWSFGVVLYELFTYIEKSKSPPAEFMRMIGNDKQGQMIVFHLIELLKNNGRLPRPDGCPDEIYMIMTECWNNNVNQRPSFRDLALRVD
# assay overview: JAK kinase assay (HTRF, phosphorylation of TK substrate-biotin), JAK2
# Type: biochemical
# test context: HTRF assay, ATP at Km (4 μM); read-out: JAK2 kinase inhibitory activity (EC50 indicator)
pEC50: −log10 of the molar value.
quantity kind: pEC50

Some entries whose results are on file:
Query pEC50 for CNS(=O)(=O)c1csc(C(=O)N2CCN(c3ncnc4[nH]ccc34)CC23CC3)c1 [Example 373]
> 7.00

Query pEC50 for O=C(c1csc2ccccc12)N1CCN(c2ncnc3[nH]ccc23)CC12CC2 [Example 214]
> 7.00

Query pEC50 for O=C(c1ccc(S(=O)(=O)NCc2ccco2)cc1)N1CCN(c2ncnc3[nH]ccc23)CC12CC2 [Example 426]
> 7.00

Query pEC50 for Cc1c[nH]c2ncnc(N3CCN(C(=O)Cc4ccc(C(F)(F)F)cc4)C4(CC4)C3)c12 [Example 331]
6.30 to 7.00

Query pEC50 for O=C(c1cccc(OC(F)(F)F)c1)N1[C@@H]2CC[C@@H]1CN(c1ncnc3[nH]ccc13)C2 [Example 244]
> 7.00

Query molecule follows.
Query pEC50 for O=C(c1cnc2ccccc2n1)N1CCN(c2ncnc3[nH]cc(Cl)c23)CC12CC2 [Example 317]
6.30 to 7.00
